- Tested on: SK-MEL-28 melanoma
- measurementDescription: NCI tumour cell line growth inhibition, 48 h
Documented GI50 across a set of compounds

Cn1c(=O)c(Oc2ccc(F)cc2F)cc2cnc(NC3CCC(O)CC3)nc21 (configuration not stated) :: > 25 µM
c1csc(-c2[nH]nc3c2CCc2ccccc2-3)c1 :: 19.2 µM
ClCc1ccc(Cn2cnc3nc(Cl)nc(Cl)c32)cc1 :: 1.86 µM
O=C1C(=O)c2c(ccc3ccccc23)-c2ccccc21 :: 1.73 µM
CCn1c(SC)nnc1-c1cc2c([nH]c3ccccc32)c(-c2cccc(O)c2)n1 :: 2.69 µM
O=C(COC(=O)[C@H](C[Se][Se]C[C@H](NC(=O)c1ccc(Br)cc1F)C(=O)OCC(=O)c1ccc(F)cc1)NC(=O)c1ccc(Br)cc1F)c1ccc(F)cc1 :: 0.631 µM
Nc1ccc(N)c2c1C(=O)c1cccc([N+](=O)[O-])c1C2=O :: 11.5 µM
CN(C)C(=O)c1cc2cnc(Nc3ccc(N4CCNCC4)cn3)nc2n1C1CCCC1 :: 16.1 µM
COc1ccc(C[C@H](N)C(=O)N[C@@H]2[C@@H](CO)OC(n3cnc4c(N(C)C)ncnc43)[C@@H]2O)cc1 (some centres not stated) :: 0.479 µM
COc1cccc2c(Nc3ccc(C(=O)NCCN4CCNCC4)cc3)cc(-c3ccccc3)nc12 :: 19 µM

Which GI50 value is on record for `Cc1c(-c2ccc(N3CCc4cccc(C(=O)Nc5nc6ccccc6s5)c4C3)nc2C(=O)O)cnn1CC12CC3CC(CC(C3)C1)C2` ? 6.27 µM

Which GI50 value is on record for `COc1cc(/C=C/C(=O)c2c(-c3ccc(Cl)cc3)nc3sc(C)nn23)cc(OC)c1OC` ? > 100 µM

* * *

- System: HT29 colon
- measurementDescription: NCI tumour cell line growth inhibition, 48 h
experimentalReadout: TGI

# count of solved cases: 3
Cc1cc2c(SCc3ccccc3Cl)nc(N)nc2nc1C :: > 100 µM
O=C1C[C@@]23CCC4(CC2=CCC[C@H]3O1)OCCO4 :: > 100 µM
CNC(=O)N(C)C(=O)c1ccccc1C(=O)N(C)C(=O)NC :: > 10 µM

Which TGI value is on record for `N#Cc1c(N)nc(N2CCOCC2)c(C#N)c1-c1ccc(Cl)cc1Cl` ? 39.3 µM

Which TGI value is on record for `CC(=O)OC/C=C/Cn1nc(Br)c(=O)[nH]c1=O` ? > 100 µM

Which TGI value is on record for `CCOC(=O)c1c(SCCN(CC)CC)n(-c2ccccc2)c(=S)n(-c2ccccc2)c1=O` ? 12.6 µM

* * *

- System: A549 NSCLC
- measurementDescription: NCI tumour cell line growth inhibition, 48 h
experimentalReadout: TGI

# count of solved cases: 5
O=C1Cc2c(-c3ccccc3)cc(-c3ccc(Cl)cc3)nc2-c2ccccc2N1 :: 35.3 µM
Brc1ccc2c(c1)-c1ccccc1C1=NCCN12 :: 3.58 µM
COC(=O)C1CCC(=S)N1C(C)=O (stereo unspecified) :: > 100 µM
CC(C)S1=C2C(=O)CC(C)(C)CC2=Nc2ccccc21 (stereo unspecified) :: > 100 µM
COC(=O)c1ccccc1NCc1cc(O)ccc1O :: > 83.1 µM

Which TGI value is on record for `Cc1c(-c2ccc(N3CCc4cccc(C(=O)Nc5nc6ccccc6s5)c4C3)nc2C(=O)O)cnn1CC12CC3CC(CC(C3)C1)C2` ? 25.3 µM

// data source = PubChem BioAssay (NCI)
